For each entry below, report its parasite growth remaining, % of DMSO control (lower = more inhibition) value.
assay: qHTS profiling of the MIPE4 collection as inhibitors of Plasmodium falciparum (DD2) proliferation (AID 743345); conditions: P. falciparum Dd2 in erythrocytes, SYBR Green DNA, 72 h; at 28.5 µM (top of the series) unless noted
Answers are plain numbers, in %.

Items follow; give parasite growth remaining, % of DMSO control (lower = more inhibition) for each.
1. CCN(C)C(=O)Oc1cccc([C@H](C)N(C)C)c1
2. CNS(=O)(=O)Cc1ccc2[nH]cc(CCN(C)C)c2c1

[17.2, 70.9]

###

Experiment: Cellular Toxicity (caspase-3) H-4-II-E (AID 663);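 further: cells exposed to compound for 16 hr before readout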
Conditions: H-4-II-E rat hepatoma, scaled: DMSO 0%, 100 µM tamoxifen 100%; at 92.2 µM (top of the series)
Description: NIH Chemical Genomics Center [NCGC] NIH Molecular Libraries Screening Centers Network [MLSCN] National Institutes of Environmental Health Sciences [NIEHS] National Toxicology Program [NTP] We have developed a 1536-well cell-based assay for quantitative high throughput screening (qHTS) against a number of cell lines to determine in vitro caspase 3/7 of small molecules. This particular assay uses the H-4-II-E cell line which is derived from rat hepatoma. […] 8. Detection; Luminescence; Viewlux plate reader […]
Results filed as inconclusive are left out.
valueKind: caspase-3 activation (%)
Give bare numbers, in %.

For every item below, please supply its caspase-3 activation.
1. O=C(N[C@H](CO)[C@H](O)c1ccc([N+](=O)[O-])cc1)C(Cl)Cl
2. Cc1ncc([N+](=O)[O-])n1CCO
3. CC(=O)Oc1ccccc1C(=O)Nc1ncc([N+](=O)[O-])s1
4. CC1=NN(c2ccccc2)C(=O)C1
5. NC(N)=NC(N)=NCCc1ccccc1
6. C[C@]12C=CC(=O)C=C1CC[C@@H]1[C@@H]2C(=O)C[C@@]2(C)[C@H]1CC[C@]2(O)C(=O)CO

0.675
0.0502
-3.94
-1.22
0.291
0.264

###

assay: Quantitative High-Throughput drug screen in 47 multiple myeloma cell lines against the NCATS MIPE library collection: KMS27_JCRB cell viability assay (AID 1918970); conditions: KMS27 myeloma cells, CellTiter-Glo ATP viability, 48 h; series mostly up to 45.8 µM; further: nearly all actives have a fitted effect of over 30% in size
Inconclusive results are not listed. The source made the active and inactive calls. Calls come from the whole dose curve; as a rule, active = well fitted cell-killing curve with a large enough effect; inconclusive = small, poorly fitted or top-dose-only effect, or effect the other way; inactive = no such curve, though single readings can be large or run the other way.
Field 'call' accepts active, inactive

Known results for molecules:
Cc1nnc(NS(=O)(=O)c2ccc(N)cc2)s1 = active
CN(Cc1cc(Br)cc(Br)c1N)C1CCCCC1 = inactive
Cc1cccc(Nc2ccncc2S(=O)(=O)NC(=O)NC(C)C)c1 = inactive
NCCCC(O)(P(=O)(O)O)P(=O)(O)O = inactive
COc1cc([C@@H]2c3cc4c(cc3[C@H](O)[C@H]3COC(=O)[C@H]23)OCO4)cc(OC)c1OC = inactive
CC[C@H](C)C(=O)O[C@H]1C[C@@H](C)C=C2C=C[C@H](C)[C@H](CC[C@@H]3C[C@@H](O)CC(=O)O3)[C@H]21 = inactive
Oc1c(Cl)cc(Cl)c2cccnc12 = active
O=c1cc(O)c(Cl)c[nH]1 = active

Could you kindly confirm the outcome this assay logged for COc1c(N2CCNC(C)C2)c(F)cc2c(=O)c(C(=O)O)cn(C3CC3)c12 (configuration not stated) ? inactive

Answer briefly: the call reported for NC(=O)N1c2ccccc2CC(=O)c2ccccc21 in this assay. inactive

Per the assay record, what outcome was assigned to CNNCc1ccc(C(=O)NC(C)C)cc1 ? inactive

Per the assay record, what outcome was assigned to NNC(=O)c1ccncc1 ? inactive

###

experiment: Quantitative High-Throughput drug screen in 47 multiple myeloma cell lines against the NCATS MIPE library collection: OPM2_DSMZ cell viability assay (AID 1919872); details: OPM2 myeloma viability, CellTiter-Glo ATP luminescence, 48 h; series mostly up to 45.8 µM; further: nearly all actives have a fitted effect of over 30% in size
Results filed as inconclusive are left out. Active and inactive are the calls of the source. Calls come from the whole dose curve; as a rule, active = well fitted cell-killing curve with a large enough effect; inconclusive = small, poorly fitted or top-dose-only effect, or effect the other way; inactive = no such curve, though single readings can be large or run the other way.
valueKind: outcome

Please review the entries below; each comes with its answer.
CCN[C@H]1C[C@H](C)S(=O)(=O)c2sc(S(N)(=O)=O)cc21 = inactive
CN1CCN(c2c(F)cc3c(=O)c(C(=O)O)cn(CCF)c3c2F)CC1 = inactive
Cc1cccc(Nc2ccncc2S(=O)(=O)NC(=O)NC(C)C)c1 = inactive
COc1cc([C@@H]2c3cc4c(cc3[C@H](O)[C@H]3COC(=O)[C@H]23)OCO4)cc(OC)c1OC = inactive

Next compound, please.
// query outcome value for entry O=c1oc2c(O)c(O)cc3c(=O)oc4c(O)c(O)cc1c4c23 inactive

###

Assay: Quantitative High-Throughput drug screen in 47 multiple myeloma cell lines against the NCATS MIPE library collection: KMS12BM_JCRB cell viability assay (AID 1918971); further: nearly all actives have a fitted effect of over 35% in size
Conditions: KMS12BM myeloma viability, CellTiter-Glo ATP, 48 h; series mostly up to 45.8 µM
Excerpt: PI: Beverly A. Mock Ph.D. Laboratory of Cancer Biology and Genetics, Center for Cancer Research, National Cancer Institute, National Institute of Health, Bethesda, Maryland […] 5; Detector; 425V; Luminescence; Viewlux PerkinElmer. […] 1. […] Briefly, the corresponding myeloma cell lines were screened in 1,536-well plates with 500 cells, 5-uL per well for inhibition of cell viability (assessed by measuring ATP levels with CellTiterGlo). […]
Records with an inconclusive call do not appear. The source made the active and inactive calls. Calls follow the shape of the dose curve; as a rule, active = well fitted cell-killing curve with a large enough effect; inconclusive = small, poorly fitted or top-dose-only effect, or effect the other way; inactive = no such curve, though single readings can be large or run the other way.
Use one of these outcomes when replying: T = active, F = inactive

Reference set, count: 3
COC(=O)Nc1nc2ccc(C(=O)c3ccccc3)cc2[nH]1 = T
CC(C)(Sc1cc(C(C)(C)C)c(O)c(C(C)(C)C)c1)Sc1cc(C(C)(C)C)c(O)c(C(C)(C)C)c1 = F
C[C@]12C=CC(=O)C=C1CC[C@@H]1[C@@H]2C(=O)C[C@@]2(C)[C@H]1CC[C@]2(O)C(=O)CO = F

Just curious, what result did CCCCc1oc2ccc(NS(C)(=O)=O)cc2c1C(=O)c1ccc(OCCCN(CCCC)CCCC)cc1 get here? T

Kindly provide the recorded test outcome for the following compound: Cc1oc(=O)oc1CN1CCN(c2cc3c(cc2F)c(=O)c(C(=O)O)c2n3C(C)S2)CC1 (stereo not given) T

###

Experiment: Quantitative High-Throughput drug screen in 47 multiple myeloma cell lines against the NCATS MIPE library collection: SKMM1_PLB cell viability assay (AID 1919863); further: nearly all actives have a fitted effect of over 35% in size
Settings: SKMM1 myeloma viability, CellTiter-Glo ATP, 48 h; stronger effect = lower value
From the text: PI: Beverly A. Mock Ph.D. Laboratory of Cancer Biology and Genetics, Center for Cancer Research, National Cancer Institute, National Institute of Health, Bethesda, Maryland […] 5; Detector; 425V; Luminescence; Viewlux PerkinElmer. […] 1. […] Briefly, the corresponding myeloma cell lines were screened in 1,536-well plates with 500 cells, 5-uL per well for inhibition of cell viability (assessed by measuring ATP levels with CellTiterGlo). […]
Records with an inconclusive call do not appear. The source made the active and inactive calls. The call rests on the fitted dose curve; in most records, active means well fitted cell-killing curve with a large enough effect; inconclusive means small, poorly fitted or top-dose-only effect, or effect the other way; inactive means no such curve, though single readings can be large or run the other way.
valueKind: viability

Completed entries (count: 6):
CCCN[C@H]1CCc2nc(N)sc2C1 = 141% (inactive)
CC(N)C12CC3CC(CC(C3)C1)C2 (stereo unspecified) = 118% (inactive)
COc1ccccc1OCC(O)COC(N)=O (stereo unspecified) = 136% (inactive)
O=C(O)C1CCCN(CCC=C(c2ccccc2)c2ccccc2)C1 (stereo unspecified) = 122% (inactive)
Cc1nnc(C(=O)NC(C)(C)c2nc(C(=O)NCc3ccc(F)cc3)c(O)c(=O)n2C)o1 = 152% (inactive)
NCCCC(O)(P(=O)(O)O)P(=O)(O)O = 137% (inactive)

Hi, could you look up viability for each item in my list?
1. CN(CCOc1ccc(CC2SC(=O)NC2=O)cc1)c1ccccn1 (stereo unspecified)
2. CC(C)(Sc1cc(C(C)(C)C)c(O)c(C(C)(C)C)c1)Sc1cc(C(C)(C)C)c(O)c(C(C)(C)C)c1
3. NC(=O)N1c2ccccc2CC(=O)c2ccccc21
4. O=C(O)c1cccnc1
5. COc1cnc(NS(=O)(=O)c2ccc(N)cc2)nc1

["112% (inactive)", "149% (inactive)", "118% (inactive)", "107% (inactive)", "141% (inactive)"]

###

test: Quantitative High-Throughput drug screen in 47 multiple myeloma cell lines against the NCATS MIPE library collection: OCIMY1_PLB cell viability assay (AID 1918979); conditions: OCI-MY1 myeloma viability, CellTiter-Glo ATP, 48 h; series mostly up to 45.8 µM; further: nearly all actives have a fitted effect of over 35% in size;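 on viability: 100% = DMSO-only wells and 0% = cell-free media-only wells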
Inconclusive results are not listed. The source made the active and inactive calls. Calls come from the whole dose curve; as a rule, active = well fitted cell-killing curve with a large enough effect; inconclusive = small, poorly fitted or top-dose-only effect, or effect the other way; inactive = no such curve, though single readings can be large or run the other way.
The categories you may choose from are 1 for active, -1 for inactive

Recorded test outcome, item CCN1CCCC1CNC(=O)c1cc(S(N)(=O)=O)ccc1OC (stereo not given) -1

Name the outcome recorded for COC(c1ccccc1)(c1ccccc1)[C@H](Oc1nc(C)cc(C)n1)C(=O)O in the assay. -1

Record lookup: outcome of this test for COc1ccc2c(c1)c(CC(=O)OCC(=O)O)c(C)n2C(=O)c1ccc(Cl)cc1 ? -1

For Nc1nc(F)nc2c1ncn2[C@@H]1O[C@H](CO)[C@@H](O)[C@@H]1O , which call appears in the assay record? 1

What outcome does the record of this test show for CN(C)CCc1c[nH]c2ccc(CS(=O)(=O)N3CCCC3)cc12 ? -1
